Tgt: benzodiazepine receptors
Protocol Notes: specific binding to benzodiazepine receptors, [3H]-diazepam displacement
Condition Label: [3H]diazepam 2 nM, pH 7.4, 4° C., 20 minutes
Binary call on IC50 with cut-off 6 nM: strictly below means Fulfilled, and equality or higher means Not fulfilled.

> print(dat)
                                   compound    group.label
1  O=C(CC1c2ccccc2C(=O)N1c1ccc2ccc(Cl)nc2n1)N1CCC2(CC1)SCCS2 (stereo not drawn)      Fulfilled
2  CCC(=O)OC1CCN(C(=O)CC2c3ccccc3C(=O)N2c2ccc3ccc(Cl)nc3n2)CC1 (stereo not drawn)      Fulfilled
3  CC(=O)OC1CCN(C(=O)CC2c3ccccc3C(=O)N2c2ccc3ccc(Cl)nc3n2)CC1 (stereo not drawn)      Fulfilled
4  COc1ccc(N2C(=O)c3ccc([N+](=O)[O-])cc3C2CC(=O)N2CCC3(CC2)OCCO3)cc1 (stereo not drawn)  Not fulfilled
5  COc1ccc(N2C(=O)c3ccc(Cl)cc3C2CC(=O)N2CCC3(CC2)OCCO3)cc1 (stereo not drawn)  Not fulfilled
6  COC1(OC)CCN(C(=O)CC2c3ccccc3C(=O)N2c2ccc3ccc(Cl)nc3n2)CC1 (stereo not drawn) [drawing 19]      Fulfilled
7  CC1(C)COC2(CCN(C(=O)CC3c4ccccc4C(=O)N3c3ccc4ccc(Cl)nc4n3)CC2)OC1 (stereo not drawn)      Fulfilled
8  COc1ccc(N2C(=O)c3ccc(Cl)cc3C2CC(=O)N2CCC(=O)CC2)cc1 (stereo not drawn)      Fulfilled
